Taken from patent US20070098715A1.

For each of the binders below, state its Total Bound Fluorescence.
Biological target: T1, Ten-M2 endogenously expressed on human cancer cell lines (SNB-19 and others) (human, UniProt Q9NT68 1-2774)
T1 construct: whole, on cells; also called Ten-M2 (Cur007); CG50426
Test: flow cytometry on SNB-19 cells at 4° C., Alexa647 anti-human IgG secondary

Some solved cases for reference:
Ten-M2-188 (antibody, IgG2, V domains shown, Fully human mAb from IgG2 kappa XenoMouse (B cell clone)) VH: QVQLVQSGAEVKKPGASVKVSCKASGYTFTGYYMHWVRQAPGQGLEWMGWINPNSGGTNSAQRFQGRVTMTRDTSIYTAYMELSRLRSDDTAVYYCAREYRSGRYYNGMDVWGQGTTVTVSS VL: DIQLTQSPSSLSASVGDRVTITCRASQDISNYLAWYQQKPGKVPKLLIYAASTLQSGVPSRFSGSGSGTDFTLTISSLQPEDIATYSCQKYSSTPFTFGPGTKVDIK ... 41.6
Ten-M2-199 (antibody, IgG2, V domains shown, Fully human mAb from IgG2 kappa XenoMouse (B cell clone); also called Mab199) VH: QVQLVQSGAEVKKPGASVKVSCKASGYTFTNYDINWLRQASGQGLEWMGWMNPDSGNTGYAQRFQGRVTMTRDTSISTAYMELSSLRSEDTAVYYCARYISSLHYYYYGMDVWGQGTTVTVSS VL: DIQMTQSPSSLSASVGDRVTITCRASQSINSYLNWYQQKPGKAPRLLIYAASNLQSGVPSRFSGSGSGTDFTLTISSLQPEDFSTYYCQQSHNTPLTFGGGTKVEIK ... 64.8
Ten-M2-140 (antibody, IgG2, V domains shown, Fully human mAb from IgG2 kappa XenoMouse (B cell clone); also called Mab140; anti-Ten-M2 monoclonal antibody clone 140) VH: QEQLVESGGGVVQPGRSLRLSCAASGFTFSSHGMHWVRQAPGKGLEWVAIIWYDGSKKFYADSVKGRFTISRDNSKNTLSLQMNSLRAEDTAVYYCARGPWNYYYYGMDVWGQGTTVTVSS VL: EIVLTQSPGTLSLSPGERATFSCRASQSVISNYLAWYQQKPGQAPRLLIYNTSSRATGIPGRFSGGGSGTDFTLTITRLEPEDFAVYYCQQYGSSPITFGQGTRLEIK ... 75.3
Ten-M2-179 (antibody, IgG2, V domains shown, Fully human mAb from IgG2 kappa XenoMouse (B cell clone); also called Mab179) VH: QVQLVESGGGVVQPGRSLRLSCAASGFTFSSYGMHWVRQAPGKGLEWVAFIWYDGSNKYYADSVKGRFTISRDNSKNTLYLQMNSLRAEDTAVYYCARDGSSGWYFFDYWGQGTLVTVSS VL: DIVMTQTPLSLSVTPGQPASISCKSSQSLLHSDRQTYLFWYLQKPGQPPQLLIYEVSNRFSGVPDRFSGSGSGTDFTLKISRVEAEDVGVYYCMQSIQLPPTFGPGTKVDIK ... 89.6

Okay, here is my list. What is Total Bound Fluorescence for each of these?
1. Ten-M2-213 (antibody, IgG2, V domains shown, Fully human mAb from IgG2 kappa XenoMouse (B cell clone); also called Mab 213) VH: QVQLVQSGAEVKKPGASVKVSCKASGYTFTNYDINWVRQATGQGLEWMGWMNPNSGNTGYAQKFQGRVTMTRNTSIRTAYMELSSLRSEDTAVYYCARGPGGSFYYYYGMDVWGQGTTVTVSS VL: DIQMTQSPSSLSASVGDRVTITCRASQSISSYLNWYQQKPGKAPNLLIYTASSLQSGVPSRFSGSGSGTVFTLTISSLQPEDFATYYCQQSSSTPFTFGPGTKVDFK
2. Ten-M2-120 (antibody, V domains shown, also called Mab120) VH: QVQLVESGGGVVQPGRSLRLSCAASGFTFSSYGMHWVRQAPGKGLEWVAVLWYDGSKKFYADSVKGRFTISRDNSKNTLYLQMNSLRAEDTALYYCARGPWNYYYYGMDVWGQGTTVTVSS VL: EIVLTQSPGTLSLSPGERATLSCRASQSVISSYLAWYQQKPGQAPRLLIYNASNRATGIPDRFSGSGSGTDFTLTISRLEPEDFAVYYCQQYGSSPITFGQGTRLEIK

[79.7, 58.4]
